target: CDK2 (Homo sapiens); construct: endogenous in cells; host or cells: OVCAR3 cells; assay: Phospho-RB measurement in OVCAR3 cells (HTRF phospho-RB cellular kit); format: cell-based; conditions: inhibition of RB phosphorylation at S807/811 (HTRF, TR-FRET ratio 665/620), 24 h compound treatment, 0.3 to 10,000 nM
assay readout: log10 of IC50 (log10 of the value in nM)
Answers are given as log10 of IC50 in nM.

Guide cases for log10 of IC50, answers given:
# `O=S1(=O)CC2(CC(Nc3nccc(-c4sc(N5C6CCC5CN(CC(F)(F)F)C6)nc4-c4cccc(NS(=O)(=O)N5CCc6ccc(C(F)(F)F)cc65)c4F)n3)C2)C1` with CDK2 (Homo sapiens): log10 of IC50 is 2.88

# `CN(C)CCN(C)S(=O)(=O)N1CCC(Nc2nccc(-c3sc(C(C)(C)C)nc3-c3cccc(NS(=O)(=O)N(C)C)c3F)n2)CC1` with CDK2 (Homo sapiens): log10 of IC50 is 2.68

# `O=S1(=O)CC2(CC(Nc3nccc(-c4sc(C56CC(C5)C6)nc4-c4cccc(NS(=O)(=O)N5CC6CCC5CC6)c4F)n3)C2)C1` with CDK2 (Homo sapiens): log10 of IC50 is 3.97

Next item in the queue.
# `CN1CC2CCC(C1)N2c1nc(-c2cccc(NS(=O)(=O)N3Cc4cccc(C(F)(F)F)c4C3)c2F)c(-c2ccnc(NC3CC4(C3)CS(=O)(=O)C4)n2)s1` with CDK2 (Homo sapiens): log10 of IC50 is 1.36

###

molecular target: CDK2 (Homo sapiens, UniProt P24941); construct: endogenous in cells; host or cells: OVCAR3 cells; assay: Phospho-RB measurement in OVCAR3 cells (HTRF phospho-RB cellular kit); format: cell-based; conditions: inhibition of RB phosphorylation at S807/811 (HTRF, TR-FRET ratio 665/620), 24 h compound treatment, 0.3 to 10,000 nM
assay readout: IC50 (µM)
Write it as a number; the unit µM goes unstated.

Guide cases for IC50, answers given:
Data point: `CC(C)(C)OC(=O)N1CCN(S(=O)(=O)Nc2cccc(-c3nc(C(C)(C)C)sc3-c3ccnc(NC4CCN(S(C)(=O)=O)CC4)n3)c2F)c2ccccc21` ; IC50 = 1.83

Data point: `O=S1(=O)CC2(CC(Nc3nccc(-c4sc(C56CC(C5)C6)nc4-c4cccc(NS(=O)(=O)N5CCc6ccncc65)c4F)n3)C2)C1` ; IC50 = 1.83

Data point: `CC(C)(C)c1nc(-c2cccc(NS(=O)(=O)N3CCc4ccc(C#N)cc43)c2F)c(-c2ccnc(NC3CC4(C3)CN(S(C)(=O)=O)C4)n2)s1` ; IC50 = 0.247

Data point: `COc1cccc2c1CN(S(=O)(=O)Nc1cccc(-c3nc(C(C)(C)C)sc3-c3ccnc(NC4CC5(C4)CS(=O)(=O)C5)n3)c1F)C2` ; IC50 = 0.0862

Data point: `CNS(=O)(=O)N1CCC(Nc2nccc(-c3sc(C(C)(C)C)nc3-c3cccc(NS(=O)(=O)N4Cc5ccccc5C4)c3F)n2)CC1` ; IC50 = 0.065

Next item in the queue.
Data point: `COCCOCCN1CCN(c2ccc(Nc3nccc(-c4sc(C(C)(C)C)nc4-c4cccc(NS(=O)(=O)N5CCc6ccc(C#N)cc65)c4F)n3)cc2)CC1` ; IC50 = 1.2
